Recorded values, source patent USRE46585.

molecular target: T1, FcRn-p3 fusion protein (human, UniProt P55899 24-297; P61769 21-119); experiment: phage ELISA pH6
T1 construct: baculovirus expressed; coated on ELISA wells; not shown: amino terminal part of bacteriophage p3 protein and CVDE protein
T1 sequence (P55899 24-297, chain 1 of 2): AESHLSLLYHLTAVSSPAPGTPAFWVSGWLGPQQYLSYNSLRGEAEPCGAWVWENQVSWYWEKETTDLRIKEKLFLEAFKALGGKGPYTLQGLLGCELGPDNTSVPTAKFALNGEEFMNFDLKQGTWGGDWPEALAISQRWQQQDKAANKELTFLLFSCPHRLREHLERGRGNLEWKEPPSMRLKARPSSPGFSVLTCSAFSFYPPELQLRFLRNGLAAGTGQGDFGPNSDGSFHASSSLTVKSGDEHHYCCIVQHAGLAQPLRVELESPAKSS
T1 sequence (P61769 21-119, chain 2 of 2): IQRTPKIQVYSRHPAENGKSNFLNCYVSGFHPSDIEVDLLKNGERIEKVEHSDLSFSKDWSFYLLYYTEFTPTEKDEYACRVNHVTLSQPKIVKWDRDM
reported-metric: Ratio/Fc-H
Provide a numeric answer, followed by its unit.

{"binder": "T5A_87 (other, EU numbering) CPPCPAPELLGGPSVFLFPPKPKDTLMISRTPEVTCVVVDVSHEDPEVKFNWYVDGVEVHNAKTKPREEQYNSTYRVVSVLTVLHQDWLDGKEYKCKVSNKALPVPIEKTISKAKGQPREPQVYTLPPSRDELTKNRVSLTCLVKGFYPSDIAVEWESNGQPENNYKTTPPVLDSDGSFFLYSKLTVDKSRWQQGNVFSCSVMHEALHYHYTQKSLSLSPGK", "Ratio/Fc-H": "7.8 fold"}

Kindly give each listed record's Ratio/Fc-H.
1. C5A_15 (other, EU numbering) CPPCPAPELLGGPSVFLFPPKPKDTLMISRTPEVTCVVVDVSHEDPEVKFNWYVDGVEVHNAKTKPREEQYNSTYRVASVLTVLHQDWLDGKEYKCKVSNKALPVPIEKTISKAKGQPREPQVYTLPPSRDELTKNQVSLTCLVKGFYPSDIAVEWVSNGQPENNYKTTPPVLDSDGSFFLYSKLTVDKSRWQQGNVFSCSVMHEALHYHYTQKSLSLSPGK
2. C5A_58 (other, EU numbering) CPPCPAPELLGGPSVFLFPPKPKDTLMISRTPEVTCVVEDVSHEDPEVKFNWYVDGVEVHNAKTKPREEQYNSTYRVVSVLTVLHQDWLNGKEYKCKVSNKALPAPIEKTISKAKGQPREPQVYTLPPSRDELTKNQVSLTCLVKGFYPSDIVVEWESNGQPENNYKTTPLVLDSDGSFFLYSKLTVDKSRWQQGNVFSCSVMHEALHSHYTQKSLSLSPGK
3. M3A_21 (other, EU numbering) CPPCPAPELLGGPSVLLFPPKPKDTLMISRTPEVTCVVEDVSHEDPEVKFNWYVDGVEVHNAKTKPREEQYNSTYRVVSVLPVLHQDWLNGKEYKCKVSNKALPAPIEKTISKAKGQPREPQVYTLPPSRDELTKNQVSLTCLVKGFYPSDIVVEWESNGQPENNYKTTPPVLDSDGSFFLYSKLTVDKSRWQQGTVFSCSVMHEALHNHYTQKSLSLSPGK
4. C5A_03 (other, EU numbering) CPPCPAPELLGGPSVFLFPPKPKDTLMISRTPEVTCVVADVSHEDPEVKFNWYVDGVEVHNAKTKPREEQYNSTYRVVSVLTVLHQDWLDGKEYKCKVSNKALPAPIEKTISKAKGQPREPQVYTLPPSRDELTKNQVSLTCLVKGFYPSDIAVEWESNGQPENNYKTTPPVLDSDGSFFLYSKLTVDKSRWQQGNVFSCSVMHEALHYHYTQKSLSLSPGK

[reply]
["3.4 fold", "2.8 fold", "2.6 fold", "2.7 fold"]
